Test system: Estrogen receptor alpha (Bos taurus)
test.description: Relative binding affinity to Estrogen receptor alpha in calf uterine cytosol compared to [3H]E2.
condition.notes: Uterus
result.type: relative binding affinity (RBA)

>  <entry.smiles>
Oc1cc(Cl)c([C@H]2NCCN[C@H]2c2c(Cl)cc(O)cc2Cl)c(Cl)c1

>  <tested.system>
Estrogen receptor alpha (Bos taurus)

>  <censoring.operator>
=

>  <reported.result>
0.05

$$$$
>  <entry.smiles>
Oc1ccc([C@H]2NCCN[C@H]2c2c(Cl)cc(O)cc2Cl)c(Cl)c1

>  <tested.system>
Estrogen receptor alpha (Bos taurus)

>  <censoring.operator>
<

>  <reported.result>
0.02

$$$$
>  <entry.smiles>
Oc1ccc([C@H]2NCCN[C@H]2c2ccc(O)cc2)cc1

>  <tested.system>
Estrogen receptor alpha (Bos taurus)

>  <censoring.operator>
<

>  <reported.result>
0.02

$$$$
>  <entry.smiles>
CCN1CCN[C@H](c2ccc(O)cc2F)[C@@H]1c1ccc(O)cc1F

>  <tested.system>
Estrogen receptor alpha (Bos taurus)

>  <censoring.operator>
=

>  <reported.result>
0.06

$$$$
>  <entry.smiles>
CCN1CCN[C@H](c2ccc(O)cc2Cl)[C@@H]1c1ccc(O)cc1Cl

>  <tested.system>
Estrogen receptor alpha (Bos taurus)

>  <censoring.operator>
=

>  <reported.result>
0.42

$$$$
>  <entry.smiles>
CCN1CCN(CC)[C@@H](c2ccc(O)cc2F)[C@H]1c1ccc(O)cc1F

>  <tested.system>
Estrogen receptor alpha (Bos taurus)

>  <censoring.operator>
=

>  <reported.result>
0.03

$$$$
>  <entry.smiles>
CCN1CCN(CC)[C@@H](c2ccc(O)cc2Cl)[C@H]1c1ccc(O)cc1Cl

>  <tested.system>
Estrogen receptor alpha (Bos taurus)

>  <censoring.operator>
=

>  <reported.result>
0.17

$$$$
>  <entry.smiles>
CCN1CCN(CC)[C@@H](c2ccc(O)cc2)[C@H]1c1ccc(O)cc1

>  <tested.system>
Estrogen receptor alpha (Bos taurus)

>  <censoring.operator>
<

>  <reported.result>
0.02

$$$$
>  <entry.smiles>
Oc1ccc([C@H]2NCCN[C@H]2c2ccc(O)cc2Cl)c(Cl)c1

>  <tested.system>
Estrogen receptor alpha (Bos taurus)

>  <censoring.operator>
<

>  <reported.result>
0.02

$$$$
>  <entry.smiles>
Oc1ccc([C@H]2NCCN[C@H]2c2ccc(O)cc2F)c(F)c1

>  <tested.system>
Estrogen receptor alpha (Bos taurus)

>  <censoring.operator>
<

>  <reported.result>
0.02

$$$$
>  <entry.smiles>
Oc1ccc(Cl)c([C@H]2NCCN[C@H]2c2c(Cl)ccc(O)c2Cl)c1Cl

>  <tested.system>
Estrogen receptor alpha (Bos taurus)

>  <censoring.operator>
<

>  <reported.result>
0.02

$$$$
